// provenance: patent EP1889617A1

Listing: IC50 of selected compounds
System: MCF-7 cells
Test: Cytotoxic effects, concentration dependent test (IC50), crystal violet staining
Assay type: cell-based
Details: Homo sapiens, MCF7; estrogen receptor positive MCF-7 cells; incubation of 72 h
Include the unit right after the number.

A selection of reference data follows.
* CCCc1c(-c2ccc(OC)cc2F)cc(-c2ccc(OC)cc2)n1-c1ccc(OC)cc1 | 17.8 µM
* CC(C)Cc1c(-c2ccc(O)cc2Cl)cc(-c2ccc(O)cc2)n1-c1ccc(O)cc1 | 15.2 µM
* CCCc1c(-c2ccc(Cl)cc2O)[nH]c(-c2ccc(O)cc2)c1-c1ccc(O)cc1 | 8.1 µM
* CCc1c(-c2ccc(O)cc2Cl)cc(-c2ccc(O)cc2)n1-c1ccc(O)cc1 | 17.8 µM

Give the reported value of IC50 for this record: COc1ccc(-c2cc(-c3ccc(OC)cc3Cl)c(C)n2-c2ccc(OC)cc2)cc1
23.6 µM

Give the reported value of IC50 for this record: Oc1ccc(-c2cc(-c3ccc(O)cc3)c(-c3ccc(O)cc3Cl)[nH]2)cc1
16.4 µM

Give the reported value of IC50 for this record: Oc1ccc(-c2cc(-c3ccc(O)cc3)c(-c3ccc(Cl)cc3O)[nH]2)cc1
9.2 µM

Give the reported value of IC50 for this record: COc1ccc(-c2cc(-c3ccc(OC)cc3Cl)c(CC(C)C)n2-c2ccc(OC)cc2)cc1
18 µM

Give the reported value of IC50 for this record: COc1ccc(-c2cc(-c3ccc(OC)cc3Cl)[nH]c2-c2ccc(OC)cc2)cc1
9.5 µM

Give the reported value of IC50 for this record: COc1ccc(-c2cc(-c3ccc(OC)cc3)c(-c3ccc(OC)cc3Cl)[nH]2)cc1
17.7 µM

----------
Listing: Relative radioactivity of labeled [^3H]E2; RBA-value MCF-7 cells (WCA); 10^-6 M of selected compounds
Target: estrogen receptor (Homo sapiens)
Construct: endogenous in cells; host or cells: MCF-7
Assay: Whole Cell Assay (WCA): competitive estrogen receptor binding against [3H]17β-estradiol
Conditions: test compound 10^-6 M, 1 h incubation (37°C), percentage to a solvent treated control sample
Include the unit right after the number.

• CCCc1c(-c2ccc(Cl)cc2O)[nH]c(-c2ccc(O)cc2)c1-c1ccc(O)cc1 = 78.1 ± 4.4%
• CCc1c(-c2ccc(O)cc2Cl)cc(-c2ccc(O)cc2)n1-c1ccc(O)cc1 = 41.2 ± 8.3%
• Oc1ccc(-c2cc(-c3ccc(O)cc3)c(-c3ccc(O)cc3Cl)[nH]2)cc1 = 35.3 ± 4.9%

Now take the following compound into account.
Give the reported value of Relative radioactivity of labeled [^3H]E2; RBA-value MCF-7 cells (WCA); 10^-6 M for this record: Oc1ccc(-c2cc(-c3ccc(O)cc3Cl)[nH]c2-c2ccc(O)cc2Cl)cc1
13.1 ± 3.2%

----------
Listing: Relative radioactivity of labeled [^3H]E2; RBA-value HAP-Assay; 10^-6 M of selected molecules
Target: recombinant human estrogen receptor (hERα) (Homo sapiens, UniProt P03372)
Construct: purchased Calbiochem
Sequence (P03372 1-595): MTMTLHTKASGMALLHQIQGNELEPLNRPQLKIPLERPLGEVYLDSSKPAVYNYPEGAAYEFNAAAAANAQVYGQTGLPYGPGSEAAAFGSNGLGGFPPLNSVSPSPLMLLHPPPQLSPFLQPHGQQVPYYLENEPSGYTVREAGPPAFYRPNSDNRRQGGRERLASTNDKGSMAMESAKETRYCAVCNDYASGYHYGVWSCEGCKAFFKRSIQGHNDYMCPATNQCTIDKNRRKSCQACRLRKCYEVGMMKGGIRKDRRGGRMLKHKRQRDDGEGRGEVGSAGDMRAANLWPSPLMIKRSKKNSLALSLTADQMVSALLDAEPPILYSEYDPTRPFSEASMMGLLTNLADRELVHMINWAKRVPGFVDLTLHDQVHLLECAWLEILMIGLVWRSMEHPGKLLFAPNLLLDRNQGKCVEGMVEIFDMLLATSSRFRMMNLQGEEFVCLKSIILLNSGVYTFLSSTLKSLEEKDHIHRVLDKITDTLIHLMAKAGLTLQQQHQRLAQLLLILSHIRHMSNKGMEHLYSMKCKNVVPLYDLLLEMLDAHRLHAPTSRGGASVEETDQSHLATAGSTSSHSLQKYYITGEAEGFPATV
Test: Recombinant ERα (HAP Assay): competitive binding against [3H]E2 on hydroxylapatite
Conditions: hERα adsorbed on hydroxylapatite; test compound 10^-6 M; overnight at 4°C; percentage to a solvent treated control sample
Kindly answer with a numeric value in %, unit omitted.

A selection of reference data follows.
* CCc1c(-c2ccc(O)cc2Cl)cc(-c2ccc(O)cc2)n1-c1ccc(O)cc1 | 30.1
* CCCc1c(-c2ccc(Cl)cc2O)[nH]c(-c2ccc(O)cc2)c1-c1ccc(O)cc1 | 70.3
* Oc1ccc(-c2cc(-c3ccc(O)cc3)c(-c3ccc(O)cc3Cl)[nH]2)cc1 | 26.4

Now take the following molecule into account.
Give the reported value of Relative radioactivity of labeled [^3H]E2; RBA-value HAP-Assay; 10^-6 M for this record: Oc1ccc(-c2cc(-c3ccc(O)cc3Cl)[nH]c2-c2ccc(O)cc2Cl)cc1
19.1
